The reported numbers originate from patent US11618747B2.

Biological target: LXRβ ligand-binding domain (Homo sapiens, UniProt P55055, DUP175-175)
Construct: amino acids 156-461; NP009052; made in house; host or cells: E. coli
Sequence (P55055 with tags, fused parts or gaps DUP175-175 limits assumed): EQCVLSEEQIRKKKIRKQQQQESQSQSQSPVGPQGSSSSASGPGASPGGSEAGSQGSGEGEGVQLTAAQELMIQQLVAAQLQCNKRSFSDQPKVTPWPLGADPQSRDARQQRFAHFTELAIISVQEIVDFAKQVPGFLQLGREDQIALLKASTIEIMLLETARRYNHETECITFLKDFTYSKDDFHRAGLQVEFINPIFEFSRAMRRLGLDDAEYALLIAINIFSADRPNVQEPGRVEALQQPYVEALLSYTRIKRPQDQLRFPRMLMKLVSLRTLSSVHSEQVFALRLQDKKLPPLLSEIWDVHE
Experiment: TR-FRETβ activity assay (NCoA3 coactivator peptide recruitment)
Format: biochemical
Conditions: TR-FRET, 1 μM 24(S)-25-epoxycholesterol prestimulation; read-out: FRETβ (EC50 range)
pEC50: −log10 of the molar value.
Attribute: pEC50

Worked cases, pEC50 given:
smi=COc1cc(-c2cccc(-c3c(-c4ccsc4C#N)c4cc(F)ccc4n3S(=O)(=O)c3ccc(C)cc3)c2)c(Cl)cc1C(=O)O assay_endpoint=pEC50 value_measured="6.00 to 7.00"
smi=COc1ccc(S(=O)(=O)n2c(-c3ccc(CCC(N)=O)cc3)c(-c3ccsc3C#N)c3ccccc32)cc1 assay_endpoint=pEC50 value_measured="5.00 to 6.00"
smi=O=C(O)c1ccc(-c2cccc(-c3c(-c4ncccc4OC(F)F)c4cc(F)ccc4n3S(=O)(=O)c3ccc(C(F)F)cc3)c2)c(Cl)c1 assay_endpoint=pEC50 value_measured="> 7.00"

Alright, here's another compound for you.
Which value of pEC50 has been reported for "O=C(O)c1ccc(-c2cccc(-c3c(-c4cn[nH]c4C(F)(F)F)c4cc(F)ccc4n3S(=O)(=O)c3ccc(C(F)F)cc3)c2)c(Cl)c1" in the records?
6.00 to 7.00

###

Target: ligand-binding domain (LBD) of LXRα (Homo sapiens, UniProt Q13133)
Construct: expressed in transfected cells; host or cells: HEK293
Test: LXR Gal4 reporter transient transfection assay (LBD-M2H Gal4α)
Assay type: cell-based
Conditions: HEK293 cells, LXRα LBD; read-out: LBD-M2H Gal4α (EC50 range)
ASSAY ENDPOINT: EC50

smi=N#Cc1sccc1-c1c(-c2cccc(N3CC(C(=O)O)C3)c2)n(S(=O)(=O)c2ccccc2)c2ccc(F)cc12 study_system="ligand-binding domain (LBD) of LXRα (Homo sapiens, UniProt Q13133)" value_measured="100 to 1000 nM"
smi=COc1ccc(S(=O)(=O)n2c(-c3ccccc3)c(-c3ccsc3OC)c3ccccc32)cc1 study_system="ligand-binding domain (LBD) of LXRα (Homo sapiens, UniProt Q13133)" value_measured="100 to 1000 nM"
smi=N#Cc1sccc1-c1c(-c2cccs2)n(S(=O)(=O)c2ccc(F)cc2)c2ccccc12 study_system="ligand-binding domain (LBD) of LXRα (Homo sapiens, UniProt Q13133)" value_measured="< 100 nM"

Alright, here's another compound for you.
Which value of EC50 has been reported for "COc1ccc(S(=O)(=O)n2c(-c3ccccc3)c(-c3cc(C)sc3C#N)c3ccccc32)cc1" in the records?
100 to 1000 nM

###

Biological target: full length (FL) LXRα (Homo sapiens)
Construct: the full length (FL) proteins of LXRα (amino acids 1-447); NP005684; expressed in transfected cells; host or cells: HEK293
Sequence (Q13133 1-447): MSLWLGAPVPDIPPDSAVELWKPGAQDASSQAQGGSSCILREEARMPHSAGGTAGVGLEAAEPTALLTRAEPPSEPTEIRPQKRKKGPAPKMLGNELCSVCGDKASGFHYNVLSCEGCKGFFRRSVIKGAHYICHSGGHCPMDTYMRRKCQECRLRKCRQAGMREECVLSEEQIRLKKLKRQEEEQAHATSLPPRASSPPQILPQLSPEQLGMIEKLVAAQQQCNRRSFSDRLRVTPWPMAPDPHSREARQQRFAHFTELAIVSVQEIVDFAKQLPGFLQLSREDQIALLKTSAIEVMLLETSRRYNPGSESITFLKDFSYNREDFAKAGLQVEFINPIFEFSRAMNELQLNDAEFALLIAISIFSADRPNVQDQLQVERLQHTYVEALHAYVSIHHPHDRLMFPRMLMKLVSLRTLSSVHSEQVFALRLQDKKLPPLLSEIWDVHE
Test: LXR Gal4 reporter transient transfection assay (FL-M2H Gal4α)
Type: cell-based
Details: HEK293 cells, full length LXRα; read-out: FL-M2H Gal4α (EC50 range)
Procedure: The tested compounds were usually dissolved, tested and stored as 20 mM stock solutions in DMSO. […] LXRα and LXRβ activity status was determined via detection of interaction with coactivator and corepressor proteins in mammalian two-hybrid experiments (M2H). […] Interaction was monitored via activation of a coexpressed Firefly Luciferase Reporter gene under control of a promoter containing repetitive GAL4 response elements (vector pFRLuc; Stratagene). […]
ASSAY ENDPOINT: EC50

Worked cases, EC50 given:
smi=Cn1cccc(-c2c(-c3cccc(-c4ccc(C(=O)O)cc4Cl)c3)n(S(=O)(=O)c3ccc(C(F)F)cc3)c3ccc(F)cc23)c1=O assay_endpoint=EC50 value_measured="100 to 1000 nM"
smi=Cc1ccc(S(=O)(=O)n2c(-c3cccc(-c4cc(F)c(CO)c(S(C)(=O)=O)c4)c3)c(-c3ccsc3C#N)c3cc(F)ccc32)cc1 assay_endpoint=EC50 value_measured="< 100 nM"

Lab note: need EC50 for "N#Cc1ccccc1-c1c(-c2cccc(-c3ccc(C(=O)O)cc3Cl)c2)n(S(=O)(=O)c2ccc(C(F)F)cc2)c2ccc(F)cc12" on full length (FL) LXRα (Homo sapiens), anyone have it?
< 100 nM
